test: NCI Yeast Anticancer Drug Screen. Data for the rad18 strain (AID 177); details: S. cerevisiae rad18 mutant growth inhibition; at 100.0 µM; stronger effect = higher value
About 79,000 compounds went through this panel and 15% of them were active in at least one assay; those are over-represented in the sample as a whole. Residues, ends and D or L forms follow the SMILES beside them. *: point of attachment. Fmoc = O=C(OCC1c2ccccc2-c2ccccc21)*; Boc = CC(C)(C)OC(=O)*
The threshold is inclusive: growth inhibition of exactly 90% counts as TRUE; values below receive FALSE.

- CC(C)(C)OC(=O)NCCCCC(NC(=O)C(Cc1c[nH]c2ccccc12)NC(=O)OCC1c2ccccc2-c2ccccc21)C(=O)O (stereo not given) (Fmoc-Trp-Lys(Boc)-OH; configuration not given here): FALSE
- CCCNCC(=O)O[C@]1(CC)C(=O)OCc2c1cc1n(c2=O)Cc2cc3ccccc3nc2-1: FALSE
- c1ccc([P+](CCN2Cc3ccccc3C2)(c2ccccc2)c2ccccc2)cc1: TRUE
- COC(=O)c1cnc(Cl)c([N+](=O)[O-])c1: TRUE
- COC(=O)/C(C#N)=C\NC(=S)C(N)=S: TRUE
- O=c1[nH]c2c([N+](=O)[O-])cccc2c2ccccc12: TRUE
- CN(C)CC(CN(C)C)C(=O)/C=C/c1ccc(Cl)cc1Cl: TRUE
- COc1ccccc1/C=C\C(=O)C1COCN1 (stereo not given): TRUE

---

assay: NCI Yeast Anticancer Drug Screen. Data for the mec2-1 strain (AID 157); settings: S. cerevisiae mec2-1 strain, at 100.0 µM, stronger effect = higher value
About 79,000 compounds went through this panel and 15% of them were active in at least one assay; those are over-represented in the sample as a whole.
quantity: growth inhibition (%)

- Cc1cc(OCc2nc(N)nc(N)c2-c2ccc(Cl)c(Cl)c2)ccc1[N+](=O)[O-]: -10
- O/N=c1/ccn(O)c2ccccc12: 98
- C/C(=N/NC(=S)Nc1ccccc1C)c1ccccn1: -6
- COc1ccccc1NC(=O)c1ccc(Cl)cc1: -4

---

test: NCI Yeast Anticancer Drug Screen. Data for the wt2 strain (AID 169);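 note: 0% = growth of vehicle-treated yeast cultures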; conditions: S. cerevisiae wt2 strain growth inhibition; at 3.7 µM; stronger effect = higher value
The panel holds about 79,000 compounds, 15% with a hit somewhere; the sample as a whole holds those more often.
Property: growth inhibition; scope: individual molecules
quantity: growth inhibition (%)

- NC(CCCCCCCCCCCCC(N)C(=O)c1ccccc1)C(=O)c1ccccc1 (stereo unspecified): -8
- O=C1c2ccccc2C(=O)c2sc(Nc3ccccc3Cl)nc21: 77
- CC1=CC(C)(C)SC(SSSC2=NC(C)=CC(C)(C)S2)=N1: -6
- O=C(Nn1c(-c2ccccc2)nc2ccccc2c1=O)c1ccc(CS)cc1: 6
- O=[N+]([O-])c1ccc(C(c2c[nH]c3ccccc23)c2c[nH]c3ccccc23)cc1: 98
- Cc1cc2nc3ccccc3n2c2ccccc12: -45

---

assay: NCI Yeast Anticancer Drug Screen. Data for the mlh1 rad18 strain (AID 175); conditions: S. cerevisiae mlh1 rad18 strain growth inhibition; at 50.0 µM; stronger effect = higher value
This is part of a sample that, as a whole, favours compounds with a hit. Of some 79,000 tested, about 15% had one in any assay.
The threshold is inclusive: growth inhibition of exactly 90% counts as 1 (yes); values below receive 0 (no).

- COc1cc2c(cc1O)[C@H](C)C(c1ccccc1OC)O2 (stereo partly specified): 0 (no)
- c1ccc2nc3c(nc2c1)sc1ccccc13: 0 (no)
- CC(C)OP(=O)(OC(C)C)/C(Cl)=N/Nc1ccc([N+](=O)[O-])cc1: 0 (no)
- CC(CN(C)C)C(=O)/C=C/c1ccc(Cl)c(Cl)c1 (stereo unspecified): 1 (yes)
- CC(C)(N=Nc1ccc(Cl)cc1)[N+](=O)[O-]: 1 (yes)
